tested on: Pseudomonas aeruginosa; experiment: Inhibition of Pseudomonas aeruginosa His-6-tagged PqsD expressed in Escherichia coli BL21 (lambdaDE3) using anthraniloyl-CoA/beta-ketodecanoic acid at 50 uM as substrate by LC-MS/MS analysis
inhibition for assorted compounds
Enter your answer as a number in %; do not include the unit.

| compound | inhibition (%) |
| --- | --- |
| O=C(Nc1cccc(Cl)c1C(=O)O)c1ccc(-c2ccccc2)cc1 | 20 |
| O=C(Nc1ccc(F)cc1C(=O)O)c1cccc(Oc2ccccc2)c1 | 57 |
| COc1cc(NC(=O)c2ccc(-c3ccccc3)cc2)c(C(=O)O)cc1OC | 27 |

Which inhibition value is on record for COc1cc(NC(=O)c2cccc(Oc3ccccc3)c2)c(C(=O)O)cc1OC ?
27

Now this one: COc1ccc(-c2cc(NC(=O)c3ccc(-c4ccccc4)cc3)c(C(=O)O)s2)cc1
45

// repeat for O=C(Nc1cccc(F)c1C(=O)O)c1ccc(-c2ccccc2)cc1 and report
21

What about Cc1ccc(NC(=O)c2ccc(-c3ccccc3)cc2)c(C(=O)O)c1 ?
42

Let us now turn to COc1ccc(NC(=O)c2ccc(-c3ccccc3)cc2)c(C(=O)O)c1
46

Now the compound O=C(Nc1ccccc1C(=O)O)c1ccc(-c2ccccc2)cc1
55

Now the compound O=C(Nc1sc(-c2ccccc2)cc1C(=O)O)c1ccc(-c2ccccc2)cc1
28

Try the compound O=C(Nc1cc(-c2ccc(Cl)cc2)sc1C(=O)O)c1ccc(-c2ccccc2)cc1
35

Same read-out for O=C(Nc1ccccc1C(=O)O)c1cccc(Oc2ccccc2)c1 ?
37

###

test system: Escherichia coli; test: Inhibition of Escherichia coli RNAP assessed as incorporation of [5,6-3H]UTP at 50 uM preincubated for 10 mins followed by DNA template and ATP, CTP, GTP, UTP, [5,6-3H]UTP addition measured after 10 mins by scintillation counting analysis
The source made the active and inactive calls. No cut-off for these calls is given here.
measurement type: inhibition

Guide cases for inhibition, answers given:
| compound | system | inhibition |
| --- | --- | --- |
| CCN(CC)S(=O)(=O)c1cccc(C(=O)Nc2ccc(-c3ccc(C(=O)O)cc3)cc2C(=O)O)c1 | Escherichia coli | 23% |
| CCN(CC)S(=O)(=O)c1cc(C(=O)Nc2ccc(Br)cc2C(=O)O)ccc1Br | Escherichia coli | inactive |
| CCN(CC)S(=O)(=O)c1cccc(C(=O)Nc2ccc(C(F)(F)F)cc2C(=O)O)c1 | Escherichia coli | inactive |
| CCN(CC)S(=O)(=O)c1cccc(C(=O)Nc2ccc(Br)cc2C(=O)O)c1 | Escherichia coli | inactive |

Entry O=C(Nc1sc(-c2ccccc2)cc1C(=O)O)c1ccc(-c2ccccc2)cc1 has what inhibition?
33%

###

experiment: Inhibition of Escherichia coli RNAP assessed as incorporation of [5,6-3H]UTP preincubated for 10 mins followed by DNA template and ATP, CTP, GTP, UTP, [5,6-3H]UTP addition measured after 10 mins by scintillation counting analysis; settings: read-out: IC50
measurement type: pIC50
Value format note: pIC50 is -log10 of concentration (mol/L); just state the number.

// known answers, use as guide
| compound | pIC50 |
| --- | --- |
| CCN(CC)S(=O)(=O)c1cccc(C(=O)Nc2ccc(-c3ccc(C(N)=O)cc3)cc2C(=O)O)c1 | 4.11 |
| O=C(Nc1sccc1C(=O)O)c1ccc(-c2ccccc2)cc1 | 3.79 |

Next:
Which pIC50 value is on record for O=C(Nc1cc(-c2ccccc2)sc1C(=O)O)c1ccc(-c2ccccc2)cc1 ?
5.00
